// provenance: ChEMBL document CHEMBL1208748

# target_or_test_system: Carbonic anhydrase 13 (Homo sapiens, UniProt Q8N1Q1)
# Sequence (Q8N1Q1 whole entry): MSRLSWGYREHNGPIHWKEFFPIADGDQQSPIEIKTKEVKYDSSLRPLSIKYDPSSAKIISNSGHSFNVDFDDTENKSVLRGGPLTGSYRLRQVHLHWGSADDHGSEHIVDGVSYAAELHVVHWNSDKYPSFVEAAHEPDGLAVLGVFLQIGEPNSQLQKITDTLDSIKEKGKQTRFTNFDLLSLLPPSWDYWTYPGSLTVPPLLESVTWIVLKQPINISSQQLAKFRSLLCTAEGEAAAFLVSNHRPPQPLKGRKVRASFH
# protocol_description: Inhibition of human recombinant carbonic anhydrase 13 after 15 mins by stopped-flow CO2 hydration assay
attribute_measured: pKi
Please note pKi is a logarithmic value: minus log10 of concentration in mol/L. Answer with that number alone.

# compound, attribute_measured, result
rows = [
    ("Cc1ccc(-c2cc(C(F)(F)F)nn2-c2ccc(S(N)(=O)=O)cc2)cc1 [CELECOXIB]", "pKi", 7.01),
]

Now let's try a different one.
Need pKi, item Nc1nnc(S(N)(=O)=O)s1 7.10

###

The following molecules have recorded Ki on Carbonic anhydrase 3 (Homo sapiens, UniProt P07451).
Sequence (P07451 whole entry): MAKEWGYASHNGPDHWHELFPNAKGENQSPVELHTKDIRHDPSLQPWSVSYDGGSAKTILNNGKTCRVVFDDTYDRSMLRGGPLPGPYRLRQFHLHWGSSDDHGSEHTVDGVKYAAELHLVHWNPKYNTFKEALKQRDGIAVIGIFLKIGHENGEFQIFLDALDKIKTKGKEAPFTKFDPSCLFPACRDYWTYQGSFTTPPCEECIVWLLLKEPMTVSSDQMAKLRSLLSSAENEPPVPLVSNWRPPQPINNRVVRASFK
Report the figure in µM without appending any unit label.

Guide cases for Ki, answers given:
# molecule, unit_of_measure, Ki
data = [
    ("Cc1ccc(-c2cc(C(F)(F)F)nn2-c2ccc(S(N)(=O)=O)cc2)cc1 [CELECOXIB]", "µM", 70),
    ("Nc1nnc(S(N)(=O)=O)s1", "µM", 150),
]

Name the recorded Ki for NS(=O)(=O)c1nnc(NC(=O)CC23CC4CC(CC(C4)C2)C3)s1 . 410
